Test system: Amyloid-β peptide release (Aβ42), HEK cells overexpressing APP (HEK-APP)
Assay explanation: Amyloid-β peptide release (Aβ42) assay, AlphaLISA on supernatant of HEK-APP cells
Format: cell-based
Details: Homo sapiens, HEK293, 24 h incubation with compound, read-out: Ab42 IC50 Ranges
Procedure: Amyloid-β Peptide Release (Aβ42 & AβTotal) Assay to Determine IC50 Values. Compounds are dissolved in and diluted in 100% DMSO and incubated with HEK-APP cells for 24 h at 37° C. in 5% CO2. […] Amyloid-β peptide release (Aβ42 & AβTotal) is measured with a Pherastar FS (BMG) multimode reader using the alphascreen module.
pIC50: −log10 of the molar value.
Attribute measured: pIC50

A selection of reference data follows.
> print(dat)
                                   compound        result
1  Cc1ncc2sc(C(=O)NCc3ccc(Oc4ccccc4)cc3)nn12  6.30 to 7.00
2  COc1cc(NC(=O)Cc2ccc(OC(F)(F)F)cc2)ccc1-c1nn2c(C)ncc2o1  6.00 to 6.30
3  Cc1ncc2oc(-c3ccc(C(=O)NCc4csc5ccc(Cl)cc45)cc3)nn12  5.66 to 6.00
4  Cc1ncc2oc(-c3ccc(NC(=O)Cc4cccc(C(F)(F)F)c4)cn3)nn12  5.66 to 6.00
5  Cc1ncc2sc(C(=O)N3CCCCC3c3ccccc3)nn12 (centres unmarked)  6.00 to 6.30

Give me pIC50 for each of these compounds, listed below.
1. COc1cc(NC(=O)Cc2cccc(Cl)c2)ccc1-c1nn2c(C)ncc2o1
2. COc1cc(NC(=O)Cc2cccc(C(F)(F)F)c2)ccc1-c1nn2c(C)ncc2o1
3. Cc1ncc2sc(-c3ccc(NC(=O)Cc4cccc(C(F)(F)F)c4)cc3)nn12

-- reply
1: 6.00 to 6.30; 2: 6.30 to 7.00; 3: 6.30 to 7.00
